These measurements were taken from the RNAGym collection of RNA variant scans (doi:10.7554/elife.80360).

Recorded self-cleavage, one value per entry.
B1: CPEB3 Ribozyme (parent)
chain: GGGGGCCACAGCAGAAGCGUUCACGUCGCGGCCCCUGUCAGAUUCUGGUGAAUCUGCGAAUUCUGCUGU

- Variants of: B1
- procedure text: self-cleavage, relative activity (ratio to wild type); higher = more cleavage; co-transcriptional

| mutation label | self-cleavage |
| --- | --- |
| C54A G65A | 0.629 |
| C12A A16G | 0.385 |
| G4C G56C | 0.246 |
| A23U A51U | 0.995 |
| C45G U67A | 0.962 |
| C45A U67A | 0.951 |
| G47A G68U | 1.01 |
| G25U A51C | 0.212 |
| U62A C63A | 0.822 |
| A15C U64A | 0.952 |
| G56U C63U | 0.842 |
| U43C G48U | 0.998 |
| G11C G30A | 0.522 |
| C7U A60G | 0.789 |
| C33A G56C | 0.488 |
| G25A G48U | 0.236 |
| G3A A52U | 0.556 |
| G19C U21C | 0.142 |
| U36A A42C | 0.191 |
| U38G C63A | 0.155 |
| C24A G25A | 0.13 |
| A16C U69A | 0.451 |
| G37A U69C | 0.498 |
| U20G C45U | 0.202 |
| U36C A51C | 0.88 |
| G2A A16U | 0.1 |
| U36C A40U | 0.64 |
| A15U U21C | 0.592 |
| U20A U44G | 0.204 |
| G1U U67C | 0.0935 |
| G31A C32U | 0.534 |
| G5C A10C | 0.176 |
| A16G A23G | 0.921 |
| A15U U64A | 0.683 |
| U38A A59C | 0.497 |
| U43G A52G | 0.911 |
| C34U U46G | 0.988 |
| G25A A60G | 0.171 |
| G2U U46A | 0.0474 |
| U44C C45U | 0.955 |
| C12A G28U | 0.141 |
| G11A C63A | 0.75 |
| U21C U67C | 0.898 |
| G4U G31C | 0.0584 |
| G11C C45U | 0.804 |
| U21G G37U | 0.196 |
| C34U C35G | 0.313 |
| G19C G41C | 0.17 |
| C54U C57G | 0.407 |
| A23G C35G | 0.336 |
| G30C G31C | 0.136 |
| A16G U64G | 0.727 |
| G31A U69G | 1.02 |
| U62G U69A | 0.937 |
| G19C G65U | 0.133 |
| A23C G30A | 0.743 |
| G19U C33A | 0.101 |
| C45G U61G | 0.731 |
| G2C C18A | 0.0265 |
| G5C C18A | 0.097 |
| A59U C66U | 0.775 |
| C39A U44A | 0.638 |
| G41C G56U | 0.369 |
| A13U C18G | 0.119 |
| C29A U67A | 0.668 |
| A13U C35G | 0.258 |
| G3C G11C | 0.0692 |
| U20C G47C | 0.188 |
| G3A G56A | 0.26 |
